- Assay summary: viability loss with induced miR-34 in A549 – imaging, A549 dox-inducible miR-34, nuclei and caspase counts, primary screen (AID 1347080)
- Experimental conditions: A549 miR-34 inducible, Hoechst nuclei count, 48 h; hits give low values; cell number ratio, induced over uninduced
Parameter measured: fold change

1. [O-]/[N+](=N/O[C@@H]1O[C@H](CO)[C@H](O)[C@H](O)[C@H]1O)N1CCCC1 | 0.904
2. Clc1ccc(CCCOCCCN2CCCCC2)cc1 | 0.895
3. COc1ccc2c(c1)c(CC(=O)Oc1ccc(-c3cc(=S)ss3)cc1)c(C)n2C(=O)c1ccc(Cl)cc1 | 0.929
4. CCCCC/C=C/C=C1/C(=O)C[C@H](O)[C@@H]1C/C=C\CCCC(=O)O | 1.04
5. COc1cc([C@@H]2OC[C@@H](c3cc(OC)c(OC)c(OC)c3)O2)cc(OC)c1OC | 0.96
6. Cc1c(C(=O)c2ccccc2)c(N)c(-c2ccccc2)n1Cc1ccc(Cl)cc1 | 0.936
7. CCc1cccc(CC)c1NC(=O)N1Cc2[nH]nc(NC(=O)c3ccc(N4CCN(C)CC4)cc3)c2C1 | 1
8. COC1CCN(C(=O)c2cc(Cc3n[nH]c(=O)c4ccccc34)ccc2F)CC1 | 0.934
9. CC(C)(C)c1cc(C(C)(C)C)c(NC(=O)c2c[nH]c3ccccc3c2=O)cc1O | 0.893
10. CCCCC(C)(C)[C@H](O)/C=C/[C@H]1C=CC(=O)[C@@H]1CCCCCCC(=O)O | 1
11. O=C(c1cccs1)c1ccc(OCCCO)c(Cl)c1Cl | 0.896
12. COc1cc2ncnc(Oc3cccc(NC(=O)Nc4cc(C(C)(C)C(F)(F)F)on4)c3)c2cc1OC | 0.934
13. CCCC/C=C/C=C/C=C\CCCCCCCC(=O)OC | 0.701
14. COc1c(C)cnc(Cn2cnc3c(Cl)nc(N)nc32)c1C | 0.993
15. Cc1nnsc1C(=O)Nc1ccc(-n2nc(C(F)(F)F)cc2C(F)(F)F)cc1 | 1.08
16. CC(C)CCCCCCC/C=C\C(=O)O | 0.991
17. CCCCCCCCCCCCCCCC(=O)OC | 0.995
18. CC#CCC(C)[C@H](O)/C=C/[C@@H]1[C@H]2C/C(=C\CCCC(=O)O)C[C@H]2C[C@H]1O (stereo partly specified) | 0.896
19. CCCCC1C(=O)CC[C@H]2[C@@H]1CC(=O)[C@@H]2CCCCCCC(=O)O (stereo partly specified) | 0.957
20. Nc1ccc(-c2ccc3ncc4ccc(=O)n(-c5cccc(C(F)(F)F)c5)c4c3c2)cn1 | 1
21. O=S(=O)(c1cccc2cnccc12)N1CCNCC1 | 1.05

---

- Assay summary: growth inhibition of DIPG cells – cell-based, MIPE5.0 library, qHTS (AID 1347068);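 on IC50: cells exposed to compound for 48 hours before viability readout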
- Experimental conditions: SU-DIPG-XXV viability
Inconclusive results are not listed. Activity calls are given as the source filed them. Cut-off not given; nearly all actives show IC50 up to about 30 µM.
Classes used: label 1 = active, label 0 = inactive

1) OC1CCC(Nc2ncc3nc(Nc4c(F)cc(F)cc4F)n([C@@H]4CCOC4)c3n2)CC1 (some centres undefined) | label 0
2) O=C(NC[C@H](O)CO)c1ccncc1Nc1ccc(I)cc1F | label 0
3) O=C(N[C@@H](c1ccccc1)[C@@H]1CCCCN1)c1cccc(C(F)(F)F)c1Cl | label 0
4) CC[C@@H]1[C@H](F)C(=O)N[C@@H]1COc1nccc2cc(C(N)=O)c(OC)cc12 | label 0
5) N=C1S/C(=C\c2ccc(-c3ccc4c(c3)C(=O)NC4=O)o2)C(=O)N1c1ccc(Br)cc1 | label 0
6) CNC(=O)c1ccc(-c2cnc3ncc(Cc4ccc5ncccc5c4)n3n2)cc1F | label 0
7) N[C@@H]1CN(c2c(F)cc3c(=O)c(C(=O)O)cn([C@@H]4C[C@@H]4F)c3c2Cl)CC12CC2 | label 0
8) CCc1cc(-c2n[nH]c(C)c2-c2ccc3c(c2)OCCO3)c(O)cc1O | label 1
9) Cc1cc(F)c(C(=O)Nc2cccc(-c3nncn3C(C)C)n2)cc1-n1cnc(C2CC2)c1 | label 1
10) COc1cc2nc(-c3cc(F)ccc3O)nc(N[C@@H]3CNC[C@H]3C(C)(C)O)c2cc1OC | label 1
11) CCC(=O)N1CCOc2c(cc(-c3cc(OC)cc(OC)c3)cc2C(=O)N[C@H]2CCCN(C)C2)C1 | label 0
12) C=CC(=O)N1CCC[C@H](n2c(=O)n(-c3ccc(Oc4ccccc4)cc3)c3c(N)ncnc32)C1 | label 0
13) CN(C)N(C)C(=O)[C@@]1(Cc2ccccc2)CCCN(C(=O)[C@@H](Cc2c[nH]c3ccccc23)NC(=O)C(C)(C)N)C1 | label 0
14) CS(=O)(=O)N1CCc2c(-c3cnc(N)nc3)nc(N3CCOCC3)nc21 | label 1
15) COc1cc2ncnc(Nc3cccc(Cl)c3F)c2cc1OC(=O)N1CCN(C)C[C@H]1C | label 0
16) Cc1nc(C(=O)NCC(=O)O)c(O)c2ccc(Oc3ccccc3)cc12 | label 0
17) CN(C)C(N)=NC(=N)N | label 0
18) N#CCC1(n2cc(-c3ncnc4[nH]ccc34)cn2)CN(C2CCN(C(=O)c3ccnc(C(F)(F)F)c3F)CC2)C1 | label 0
19) NC(=O)Nc1cc(-c2cccc(F)c2)sc1C(=O)N[C@H]1CCCNC1 | label 1

---

- Assay summary: drug combination growth inhibition, ovarian cancer – cell-based, oncology-focused library, rucaparib conditional, profiling panel (AID 1508598)
- Experimental conditions: patient-derived ovarian cancer cells, CellTiter-Glo viability, 144 h; at 0.000305 µM; OCI-P5x cells; with rucaparib 20 µM; hits give low values; 100% = cells with rucaparib alone
Parameter measured: viability (%)

1) Cn1cncc1[C@@](N)(c1ccc(Cl)cc1)c1ccc2c(c1)c(-c1cccc(Cl)c1)cc(=O)n2C | 102
2) O=C(NCCCNc1nc(Nc2cccc(NC(=O)N3CCCC3)c2)ncc1I)c1cccs1 | 91.2
3) N#Cc1c(NC(=O)c2cccc3ccccc23)sc2c1CCCC2 | 96
4) C/C(=C\C(=O)Nc1ccccc1C(=O)O)c1ccc2ccccc2c1 | 107
5) CS(=O)(=O)c1ccc(C(=O)Nc2ccc(Cl)c(-c3ccccn3)c2)c(Cl)c1 | 92.5
6) C=CC(=O)Nc1cccc(Oc2nc(Nc3ccc(N4CCN(C)CC4)cc3OC)ncc2Cl)c1 | 114
7) CC(C)[C@H](C(=O)Nc1ccc(C(=O)NO)cc1)c1ccccc1 | 105
8) O=C(CCCCCCC(=O)Nc1ccc([C@H]2O[C@@H](CSc3nc(-c4ccccc4)c(-c4ccccc4)o3)C[C@@H](c3ccc(CO)cc3)O2)cc1)NO | 97.6
9) CC1(COc2ccc3c(c2)ncn3-c2ccc3cccc(N4CCC(N)CC4)c3n2)COC1 | 122

---

- Assay summary: viability loss with induced miR-34 in A549 – imaging, A549 dox-inducible miR-34, nuclei and caspase counts, primary screen (AID 1347080)
- Experimental conditions: A549 miR-34 inducible, Hoechst nuclei count, 48 h; hits give low values; cell number ratio, induced over uninduced
compounds and their reported fold change
Parameter measured: fold change

1) N[C@@H](Cc1cc(-c2ccc(Cl)cc2Cl)cc(CP(=O)(O)O)c1O)C(=O)O | 0.913
2) Nc1cccc(-c2cc3c(Oc4cccc(O)c4)ncnc3[nH]2)c1 | 1.45
3) CCCc1c(OCCCOc2ccc(OCC(=O)O)cc2)ccc(CC=O)c1O | 0.911
4) FC(F)(F)c1ccc(/C=C/c2cc(Cl)cc(Cl)c2)cc1 | 1.01
5) CC(CN1CCC(n2c(=O)[nH]c3cc(Cl)ccc32)CC1)NC(=O)c1ccc2ccccc2c1 (stereo not given) | 1.08
6) CCOC(=O)C1=C[C@@H](OC(CC)CC)[C@H](NC(C)=O)[C@@H](N)C1 | 0.9
7) CC(C)c1ccc(C(=O)c2cccs2)c(SCCCCCCCCN(C)C)n1 | 1.16
8) NC(=O)c1cccc(-c2cccc(OC(=O)NCCCCCCc3ccccc3)c2)c1 | 0.904
9) COc1cc2nccc(Oc3ccc(NC(=O)NC4CC4)c(Cl)c3)c2cc1C(N)=O | 0.924
10) CCCCCCCCCCCCCCCC(=O)OC[C@H](COP(=O)([O-])OCC[N+](C)(C)C)OC(=O)CCCCCCCC(=O)O | 0.924

---

- Assay summary: growth inhibition of DIPG cells – cell-based, MIPE5.0 library, qHTS (AID 1347068);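 on IC50: cells exposed to compound for 48 hours before viability readout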
- Experimental conditions: SU-DIPG-XXV viability
Results filed as inconclusive are left out. Active and inactive are the calls of the source. No cut-off is given here; in the data, nearly all actives have IC50 up to about 30 µM.
Parameter measured: IC50

1) N#Cc1cc2cc(CN3CCC(Nc4ncnc5sc(CC(F)(F)F)cc45)CC3)c(O)cc2n1Cc1cn[nH]c1 | 20.9 µM (active)
2) COc1cc2nc(N3CCCN(C)CC3)nc(NC3CCN(Cc4ccccc4)CC3)c2cc1OC | 11.8 µM (active)
3) CS(=O)(=O)c1ccc([C@@H](CC2CCCC2)C(=O)Nc2nccs2)cc1 | 13.2 µM (active)
